Data provenance: the supplement of paper PMC3545927

measured target: furin, P09958;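 further: purified furin at 1:10 enzyme:substrate in 50 mM HEPES pH 7.5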
Sequence (P09958 whole entry): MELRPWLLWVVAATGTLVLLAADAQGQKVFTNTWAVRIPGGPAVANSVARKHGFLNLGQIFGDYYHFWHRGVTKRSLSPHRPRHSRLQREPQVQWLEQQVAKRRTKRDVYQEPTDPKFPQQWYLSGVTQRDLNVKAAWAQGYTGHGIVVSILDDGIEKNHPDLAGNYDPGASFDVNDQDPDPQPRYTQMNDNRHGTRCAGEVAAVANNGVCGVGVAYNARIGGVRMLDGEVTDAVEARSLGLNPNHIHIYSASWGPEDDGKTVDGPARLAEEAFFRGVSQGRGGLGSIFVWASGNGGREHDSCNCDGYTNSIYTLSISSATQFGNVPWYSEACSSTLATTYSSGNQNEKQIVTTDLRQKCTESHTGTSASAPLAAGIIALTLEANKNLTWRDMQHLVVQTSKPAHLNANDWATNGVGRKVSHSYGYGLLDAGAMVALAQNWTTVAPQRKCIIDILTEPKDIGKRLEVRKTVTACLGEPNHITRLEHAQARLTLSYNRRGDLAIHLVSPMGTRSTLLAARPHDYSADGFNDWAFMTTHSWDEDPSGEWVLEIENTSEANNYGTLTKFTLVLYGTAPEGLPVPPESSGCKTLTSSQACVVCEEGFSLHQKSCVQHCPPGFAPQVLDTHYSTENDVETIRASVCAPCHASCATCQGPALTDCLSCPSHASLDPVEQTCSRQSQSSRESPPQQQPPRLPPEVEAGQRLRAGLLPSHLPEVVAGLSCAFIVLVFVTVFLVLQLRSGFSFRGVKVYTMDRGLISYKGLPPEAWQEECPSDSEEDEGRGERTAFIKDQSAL
test: furin cleavage Z-score vs untreated control; higher = more cleavage, active = 3.5 or more, inactive = 1 or less, 8 variable residues between constant flanks
assay setup: 7.5 min
The other results are listed elsewhere or left out. The true hit rate is not given.
For each of the sequences below, state its furin cleavage Z-score.
Just the number.

Enquiry: Identify furin cleavage Z-score associated with the sequence CANPSVAATLAGNASASA [HC788]
Return: -2.1

Enquiry: Return furin cleavage Z-score (reported value) for this sequence: CARSKRGTEDAGNASASA [FS-3084]
Return: 8.96

Enquiry: Input CARRGRSRSRAGNASASA [FS-2774] , output reported furin cleavage Z-score.
Return: -0.725

Enquiry: Supply measured furin cleavage Z-score of CATTPRSGSWAGNASASA [HC50] in your reply.
Return: 0.195

Enquiry: Name the recorded furin cleavage Z-score of the sequence listed here: CARRARFLHEAGNASASA [FS-2177]
Return: 0.34

Enquiry: Kindly indicate its recorded furin cleavage Z-score. Item: CARSKRRDANAGNASASA [FS-2306]
Return: -0.438

Enquiry: Note down furin cleavage Z-score recorded for CARDKRKQRQAGNASASA [FS-2205]
Return: 1.77
